Hi there, I'd appreciate the recorded phosphorylation enrichment for every entry that follows.
- Test system: c-Abl (mouse);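 further: 11-residue human phosphosite peptides and single-mutation variants displayed on the E. coli surface, counted by deep sequencing, each peptide's frequency after selection divided by its frequency in the unselected input library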;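 further: frequency after pTyr selection over input frequency; kinase dosed for 20-30% of maximal phosphorylation in three min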
- assay_name: phosphorylation enrichment, bacterial display (enrichment ratio); higher = better substrate or ligand; peptides without Tyr show the background
Answers are plain numbers.

As a guide, the following entries are already answered.
[[record]]
chain_sequence = "IVAEYYDNLPH [DEGS1_Y284_A280V]"
observed_property = "phosphorylation enrichment"
measured_value = 1.25

[[record]]
chain_sequence = "LKFAIYFEVRE [LAMA2_Y1258_A1261V_YF]"
observed_property = "phosphorylation enrichment"
measured_value = 1.74

[[record]]
chain_sequence = "ADRLEYSRTGL [MMUT_Y287_G284R]"
observed_property = "phosphorylation enrichment"
measured_value = 0.498

[[record]]
chain_sequence = "MGGSVYFSYPD [HIKESHI_Y55]"
observed_property = "phosphorylation enrichment"
measured_value = 0.752

[[record]]
chain_sequence = "WAFNLYDINKD [KCNIP3_Y174]"
observed_property = "phosphorylation enrichment"
measured_value = 0.91

[[record]]
chain_sequence = "KDHPDYKFQPR [SOX10_Y171_YF]"
observed_property = "phosphorylation enrichment"
measured_value = 0.573

[[record]]
chain_sequence = "PESIPYRKFTT [NTRK1_Y701_L700P]"
observed_property = "phosphorylation enrichment"
measured_value = 0.879

[[record]]
chain_sequence = "RALRHYYKLNI [ETV6_Y401]"
observed_property = "phosphorylation enrichment"
measured_value = 0.371


For each entry beneath this line, provide reported phosphorylation enrichment.
1. SSFPDYLAAVD [GLB1_Y154_D151Y_YF]
2. HGDSAYHSQRH [ERBB3_Y1132_R1127H]
3. IKGIRYLHHRG [GUCY2D_Y656]
4. VDEVLYEDSSA [MTHFS_Y197_T202A]
5. TSKLNYLDPRI [TOP1_Y723]
6. DVELLYPVKEK [EPHX1_Y283]
7. GINDDHGQLKN [NBN_Y679_Y679H]

1: 0.703; 2: 1.32; 3: 0.497; 4: 0.923; 5: 0.407; 6: 0.648; 7: 0.524

Below is a list of sequences. For each, state its recorded phosphorylation enrichment.
1. SILAVYSKDNY [PANK2_Y400]
2. RVGNMYVRGLS [ABCG8_Y209]
3. KGVDRYNPENL [EIF3K_Y21_I18V]
4. LEIETYRRLRD [KRT12_Y429_L433R]
5. DVVKDCAFVHM [RBM14_Y114_Y114C]

1: 0.653; 2: 0.494; 3: 0.392; 4: 0.659; 5: 0.645

* * *

- measured_target: SHP2-C SH2;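 further: peptide library displayed on the E. coli surface as eCPX fusions, selected cells deep-sequenced, score is each peptide's frequency after selection divided by its frequency in the input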
- assay_name: SH2 binding enrichment of the phosphorylated peptide, bacterial display (enrichment ratio); higher = better substrate or ligand; peptides without Tyr show the background
Assign SH2 binding enrichment to each entry below.
Answers are plain numbers.

[[record]]
chain_sequence = "DHAGMYGLGDR [MAPT_Y18_T17M]"
observed_property = "SH2 binding enrichment"
measured_value = 0.472

[[record]]
chain_sequence = "APQYTYTQGGQ [FLNA_Y1763_A1764T]"
observed_property = "SH2 binding enrichment"
measured_value = 0.799

[[record]]
chain_sequence = "YQCKHYACIRQ [TIMP3_Y182_S179C]"
observed_property = "SH2 binding enrichment"
measured_value = 4.01

[[record]]
chain_sequence = "IVAEFYDNLPH [DEGS1_Y284_A280V_YF]"
observed_property = "SH2 binding enrichment"
measured_value = 0.695

[[record]]
chain_sequence = "DCVRMYELVHR [GLE1_Y135_G130D]"
observed_property = "SH2 binding enrichment"
measured_value = 0.746

[[record]]
chain_sequence = "GRERPYGGGGG [FUS_Y526_R521G]"
observed_property = "SH2 binding enrichment"
measured_value = 0.824


From here, focus on the item given below.
Give the measured SH2 binding enrichment of RGKDSYETSQL [SPP1_Y225] . 0.381
